- experimental system: Ribosomal protein S6 kinase alpha-3 (Homo sapiens, UniProt P51812)
- Sequence (P51812 whole entry): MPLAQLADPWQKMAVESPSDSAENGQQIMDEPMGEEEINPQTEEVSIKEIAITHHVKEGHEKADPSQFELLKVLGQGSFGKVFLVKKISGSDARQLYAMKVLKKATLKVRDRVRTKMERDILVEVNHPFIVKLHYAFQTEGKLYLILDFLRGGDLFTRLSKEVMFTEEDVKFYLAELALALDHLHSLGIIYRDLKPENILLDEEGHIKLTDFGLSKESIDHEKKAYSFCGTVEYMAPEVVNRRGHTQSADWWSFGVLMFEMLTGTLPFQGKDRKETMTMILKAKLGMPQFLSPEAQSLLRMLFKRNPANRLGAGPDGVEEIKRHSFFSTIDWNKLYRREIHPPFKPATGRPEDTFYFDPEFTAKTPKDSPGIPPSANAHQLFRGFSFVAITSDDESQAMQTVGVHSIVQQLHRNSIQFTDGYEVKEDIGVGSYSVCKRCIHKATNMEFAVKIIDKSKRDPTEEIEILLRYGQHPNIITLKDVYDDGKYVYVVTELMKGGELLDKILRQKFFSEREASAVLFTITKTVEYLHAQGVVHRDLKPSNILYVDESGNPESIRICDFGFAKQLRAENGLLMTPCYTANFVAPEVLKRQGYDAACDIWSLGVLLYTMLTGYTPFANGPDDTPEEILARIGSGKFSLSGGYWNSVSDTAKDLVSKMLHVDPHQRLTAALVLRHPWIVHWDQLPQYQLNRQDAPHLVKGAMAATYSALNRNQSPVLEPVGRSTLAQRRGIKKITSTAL
- assay remarks: Inhibition of RSK2 expressed in human MCF7 cells incubated for 1 hrs by
- Type: cell-based
quantity kind: IC50
Please answer using a numeric value trailed by its unit.

**Query** Give me measured IC50, please, for this compound: O=C1C[C@@H](c2ccc(O)c(O)c2)Oc2cc(O)cc(O)c21
**Result** 4.77 µM

###

- experimental system: UniProt Q9UK32
- Sequence (Q9UK32 whole entry): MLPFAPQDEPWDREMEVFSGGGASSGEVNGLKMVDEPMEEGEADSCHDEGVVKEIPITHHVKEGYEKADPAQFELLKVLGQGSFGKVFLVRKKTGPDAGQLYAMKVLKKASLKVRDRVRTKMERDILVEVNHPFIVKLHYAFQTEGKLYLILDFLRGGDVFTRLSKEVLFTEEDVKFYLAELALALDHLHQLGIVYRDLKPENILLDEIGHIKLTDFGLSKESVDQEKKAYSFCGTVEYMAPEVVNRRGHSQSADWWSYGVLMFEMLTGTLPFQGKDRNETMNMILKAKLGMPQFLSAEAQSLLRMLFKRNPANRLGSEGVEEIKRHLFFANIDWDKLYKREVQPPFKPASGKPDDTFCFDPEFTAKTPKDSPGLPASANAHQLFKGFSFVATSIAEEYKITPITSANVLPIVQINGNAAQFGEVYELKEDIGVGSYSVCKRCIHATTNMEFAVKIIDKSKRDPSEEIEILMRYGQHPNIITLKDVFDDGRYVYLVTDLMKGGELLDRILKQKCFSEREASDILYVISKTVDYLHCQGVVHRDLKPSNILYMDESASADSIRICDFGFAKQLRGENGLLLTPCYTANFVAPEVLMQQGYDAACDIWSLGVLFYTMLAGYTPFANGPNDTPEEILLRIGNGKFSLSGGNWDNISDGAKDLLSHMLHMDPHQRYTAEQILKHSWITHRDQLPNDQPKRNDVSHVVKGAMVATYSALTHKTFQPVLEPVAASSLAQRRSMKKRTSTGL
quantity kind: IC50 (µM)
Answer format: numeric, µM implied, no suffix.

**Query** Answer with IC50 of CCCNC(=O)O[C@@H]1[C@@H](OC(C)=O)[C@@H](O)[C@H](Oc2c(-c3ccc(O)cc3)oc3cc(O)cc(O)c3c2=O)O[C@H]1CCC measured for UniProt Q9UK32.
**Result** 6.2
